Entries and their measured Aggregates follow.
Tested on: P19
Experiment: Percent aggregation of mouse embryonal carcinoma (P19) cells 10e-6 M concentration in culture medium
Format: functional
Your answer is read as %, so omit the unit and give the number.

The cases that follow already have their Aggregates on record.
INPUT: Query: Aggregates; subject: COC(=O)c1ccc(NC(=O)c2cnc3c(n2)C(C)(C)CCC3(C)C)cc1Cl
OUTPUT: 74

INPUT: Next compound up: CC1(C)CC(C)(C)c2nc(C(=O)Nc3cccc(C(=O)O)c3)cnc21
OUTPUT: 0

INPUT: Next compound up: COC(=O)c1ccc(NC(=O)c2cnc3c(n2)C(C)(C)CC3(C)C)cc1
OUTPUT: 52

INPUT: Next compound up: COC(=O)c1ccc(OC)c(NC(=O)c2cnc3c(n2)C(C)(C)CC3(C)C)c1
OUTPUT: 0

As a next step, examine the compound that follows.
INPUT: Query: Aggregates; subject: CC1(C)CCC(C)(C)c2nc(C(=O)Nc3ccc(C(=O)O)cc3)cnc21
OUTPUT: 70

* * *

System: P19
Assay: Percent aggregation of mouse embryonal carcinoma (P19) cells 10e-6 M concentration in culture medium
Assay type: functional
Entries and their measured Aggregates follow.
Your answer is read as %, so omit the unit and give the number.

The cases that follow already have their Aggregates on record.
INPUT: Query: Aggregates; subject: COC(=O)c1ccc(N(C)C(=O)c2cnc3c(n2)C(C)(C)CC3(C)C)cc1
OUTPUT: 0

INPUT: Next compound up: CC1(C)CC(C)(C)c2nc(C(=O)Nc3ccc(C(=O)O)c(Cl)c3)cnc21
OUTPUT: 60

INPUT: Next compound up: CC1(C)CC(C)(C)c2nc(C(=O)Nc3ccc(C(=O)O)cc3)cnc21
OUTPUT: 67

INPUT: Next compound up: COC(=O)c1ccc(NC(=O)c2cnc3c(n2)C(C)(C)CC3(C)C)cc1Cl
OUTPUT: 50

INPUT: Next compound up: COC(=O)c1cccc(NC(=O)c2cnc3c(n2)C(C)(C)CCC3(C)C)c1
OUTPUT: 0

Next:
INPUT: Query: Aggregates; subject: CC1(C)CC(C)(C)c2nc(C(=O)Nc3cc(C(=O)O)ccc3Cl)cnc21
OUTPUT: 2

INPUT: Next compound up: COC(=O)c1ccc(Cl)c(NC(=O)c2cnc3c(n2)C(C)(C)CCC3(C)C)c1
OUTPUT: 0

INPUT: Next compound up: COc1cc(C(=O)O)ccc1NC(=O)c1cnc2c(n1)C(C)(C)CC2(C)C
OUTPUT: 0

INPUT: Next compound up: COC(=O)c1cccc(NC(=O)c2cnc3c(n2)C(C)(C)CC3(C)C)c1
OUTPUT: 2

INPUT: Next compound up: COC(=O)c1ccc(Cl)c(NC(=O)c2cnc3c(n2)C(C)(C)CC3(C)C)c1
OUTPUT: 0

INPUT: Next compound up: CN(C(=O)c1cnc2c(n1)C(C)(C)CCC2(C)C)c1ccc(C(=O)O)cc1
OUTPUT: 0

INPUT: Next compound up: COC(=O)c1ccc(OC)c(NC(=O)c2cnc3c(n2)C(C)(C)CCC3(C)C)c1
OUTPUT: 0

INPUT: Next compound up: COc1ccc(C(=O)O)cc1NC(=O)c1cnc2c(n1)C(C)(C)CC2(C)C
OUTPUT: 0
